# target_under_test: human CD33 A306S (human, UniProt P20138 18-364)
# Sequence (P20138 18-364 A306S limits assumed): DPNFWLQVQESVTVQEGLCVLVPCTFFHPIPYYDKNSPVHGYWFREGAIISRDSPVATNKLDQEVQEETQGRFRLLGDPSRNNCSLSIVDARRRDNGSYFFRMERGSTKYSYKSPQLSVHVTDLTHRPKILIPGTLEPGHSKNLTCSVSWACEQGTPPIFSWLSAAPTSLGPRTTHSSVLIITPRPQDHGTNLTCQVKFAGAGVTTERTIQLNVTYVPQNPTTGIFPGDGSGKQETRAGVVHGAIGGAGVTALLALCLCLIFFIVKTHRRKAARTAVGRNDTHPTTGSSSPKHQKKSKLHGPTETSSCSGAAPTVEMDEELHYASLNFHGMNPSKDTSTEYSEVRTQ
# assay_method_text: alanine scan, flow cytometry, HEK293-T;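 note: antibody binding to each alanine-substituted CD33 mutant expressed transiently in HEK293-T, read as fluorescence minus background, mean of duplicates, relative to wild-type CD33 set as 100%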
value_type: Mean % WT Binding (% WT binding)
Give the quantity in % WT binding, number only.

Query :: What value of measured Mean % WT Binding is listed for Refmab #3 (antibody, V domains shown, The alanine scan used IgG or Fab) VH: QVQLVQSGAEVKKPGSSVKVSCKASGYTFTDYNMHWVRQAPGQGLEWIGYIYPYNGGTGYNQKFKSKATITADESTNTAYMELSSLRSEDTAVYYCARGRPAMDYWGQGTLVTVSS VL: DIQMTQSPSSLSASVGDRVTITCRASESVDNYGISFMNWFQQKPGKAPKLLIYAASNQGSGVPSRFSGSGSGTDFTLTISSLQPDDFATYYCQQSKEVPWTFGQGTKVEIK ?
Result :: 111

Query :: Now the same for Refmab #4 (antibody, V domains shown, The alanine scan used IgG or Fab) VH: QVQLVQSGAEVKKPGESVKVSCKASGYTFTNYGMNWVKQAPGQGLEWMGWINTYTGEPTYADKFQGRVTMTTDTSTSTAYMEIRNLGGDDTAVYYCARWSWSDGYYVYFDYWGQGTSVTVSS VL: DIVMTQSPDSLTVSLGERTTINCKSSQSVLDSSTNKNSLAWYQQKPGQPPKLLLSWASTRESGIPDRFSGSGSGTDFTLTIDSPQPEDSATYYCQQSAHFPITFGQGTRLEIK
Result :: 79.3

Query :: Now the same for Refmab #1 (antibody, V domains shown, The alanine scan used IgG or Fab; also called hP67.6) VH: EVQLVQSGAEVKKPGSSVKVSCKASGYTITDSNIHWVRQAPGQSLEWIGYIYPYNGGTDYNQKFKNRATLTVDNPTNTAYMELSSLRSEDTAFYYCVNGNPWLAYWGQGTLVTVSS VL: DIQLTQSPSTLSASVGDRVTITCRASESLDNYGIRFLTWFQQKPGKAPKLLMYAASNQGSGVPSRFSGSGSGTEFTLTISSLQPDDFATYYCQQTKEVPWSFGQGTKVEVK
Result :: 102
